Quick reference: inhibition of the listed items.
assayed_target: Gag-Pol polyprotein (Human immunodeficiency virus type 1 group M subtype B (isolate HXB2)) (UniProt P04585)
procedure_text: RNase H inhibition, HIV 1 Gag Pol polyprotein, FRET biochemical assay, screening (AID 372)
stated_conditions: HIV-1 RT RNase H, FRET RNA/DNA substrate fluorescence; at 10 µM; hits give high values
The whole screen tested about 100,000 compounds, of which about 770 (0.77%) were called active. Only a selection was taken, and actives are over-represented in it overall.
Numeric only. Scale: %

The cases that follow already have their inhibition on record.
structure_as_smiles: COc1cc(C(=S)N2CCOCC2)cc(I)c1O
display_unit: %
endpoint_value: 45

structure_as_smiles: CCOc1cc(C(=S)N2CCOCC2)cc(Br)c1O
display_unit: %
endpoint_value: 13

Q. Need inhibition, item `CCOc1cc(C(=S)N2CCCCC2)cc(Br)c1O`
A. 56

---

assayed_target: Gag-Pol polyprotein (Human immunodeficiency virus type 1 group M subtype B (isolate HXB2))
procedure_text: RNase H inhibition, HIV 1 Gag Pol polyprotein, FRET biochemical assay, screening (AID 372)
stated_conditions: HIV-1 RT RNase H, FRET RNA/DNA substrate fluorescence; at 10 µM; hits give high values
Hit rate of the full screen: of about 100,000 compounds, about 770 (0.77%) were called active. This is one part of a sample in which actives are shown more often than they occur.
Mark N for inhibition values under 6%, and Y for everything at or above.

Study these solved cases before continuing.
compound: O=C(c1ccccc1)c1ccc(NC(=O)c2sc3ccccc3c2Cl)cc1
category: Y

compound: CSc1ccc(S(=O)(=O)N(CC(=O)NC2CCCCC2)c2ccc(C)cc2)cc1
category: Y

Q. Does the reported inhibition for `CCOC(=O)c1c(C)oc2c1C(=O)C(=O)C(Br)=C2` fall at or above the 6% mark?
A. N

Q. Does the reported inhibition for `C/C(=C\c1cccc2ccccc12)[N+](=O)[O-]` fall at or above the 6% mark?
A. Y

Q. Does the reported inhibition for `Cc1c(OCc2c(F)cccc2Cl)ccc2c3c(c(=O)oc12)CCC3` fall at or above the 6% mark?
A. N

Q. Does the reported inhibition for `O=C(Nc1ccc(-c2ccc(NC(=O)c3ccccc3Cl)c(Cl)c2)cc1Cl)c1ccccc1Cl` fall at or above the 6% mark?
A. Y

---

assayed_target: Gag-Pol polyprotein (Human immunodeficiency virus type 1 group M subtype B (isolate HXB2))
procedure_text: RNase H inhibition, HIV 1 Gag Pol polyprotein, FRET biochemical assay, screening (AID 372)
stated_conditions: HIV-1 RT RNase H, FRET RNA/DNA substrate fluorescence; at 10 µM; hits give high values
Screen size: about 100,000 compounds; about 770 (0.77%) were called active. This excerpt belongs to a sample that is enriched for actives.
Quick reference: inhibition of the listed items.
Numeric only. Scale: %

The cases that follow already have their inhibition on record.
compound: CCc1nn(-c2ccccc2)c2nc(-c3ccccc3C)c3cc(OC)c(OC)cc3c12
display_unit: %
inhibition: 13
--
compound: O=C(/C=C/c1cccc([N+](=O)[O-])c1)Nc1ccc(-c2nc3ccccc3o2)c(O)c1
display_unit: %
inhibition: 14
--
compound: Cc1ccc(S(=O)(=O)Nc2cc(C)c(O)c(S(=O)(=O)c3ccc(C)cc3)c2)cc1
display_unit: %
inhibition: 18

Q. Need inhibition, item `O=C(/C=C/c1cccc([N+](=O)[O-])c1)Nc1ccc2oc(-c3ccccc3)nc2c1`
A. 31

---

assayed_target: Gag-Pol polyprotein (Human immunodeficiency virus type 1 group M subtype B (isolate HXB2))
procedure_text: RNase H inhibition, HIV 1 Gag Pol polyprotein, FRET biochemical assay, screening (AID 372)
stated_conditions: HIV-1 RT RNase H, FRET RNA/DNA substrate fluorescence; at 10 µM; hits give high values
In all, about 100,000 compounds went through this assay and about 770 (0.77%) were called active. Many of the other results were omitted from the sample, so actives are more common in it than they were.
Mark NOT MET for inhibition values under 10%, and MET for everything at or above.

compound: COc1ccc(C(=O)Nc2ccc3nn(-c4ccc(F)cc4)nc3c2)cc1
category: NOT MET
//
compound: N#C/C(=C\Nc1ccc(S(=O)(=O)Nc2nccs2)cc1)c1nc(-c2ccc(-c3ccccc3)cc2)cs1
category: MET
//
compound: COc1ccc(-n2nc3ccc(NC(=O)c4ccc(I)cc4)cc3n2)cc1
category: MET

Q. Does the reported inhibition for `COc1cccc2cc(-c3csc(Nc4ccccc4C)n3)c(=O)oc12` fall at or above the 10% mark?
A. MET

Q. Does the reported inhibition for `COc1ccc(-n2nc3ccc(NC(=O)c4ccc(C)c(C)c4)cc3n2)cc1` fall at or above the 10% mark?
A. NOT MET

Q. Does the reported inhibition for `Cc1cc(NC(=O)c2ccc(F)cc2)ccc1NC(=O)c1ccccc1` fall at or above the 10% mark?
A. NOT MET

Q. Does the reported inhibition for Cc1ccc(N2C(=O)CC(Cc3ccc(Cl)cc3)C2=O)cc1C (configuration not stated) fall at or above the 10% mark?
A. NOT MET

Q. Does the reported inhibition for CCOC(=O)c1cnn2c1NC1=C(CCc3ccccc31)C2C(F)(F)F (configuration not stated) fall at or above the 10% mark?
A. MET

Q. Does the reported inhibition for COc1ccc(C2CC(C(F)(F)F)n3nc(C(=O)Nc4cc(OC)c(Cl)cc4OC)c(Cl)c3N2)cc1 (configuration not stated) fall at or above the 10% mark?
A. MET

Q. Does the reported inhibition for `Cc1cc(NC(=O)c2ccc(I)cc2)ccc1NC(=O)c1ccccc1` fall at or above the 10% mark?
A. MET

Q. Does the reported inhibition for `O=C(NCc1ccc(Cl)cc1)c1ccco1` fall at or above the 10% mark?
A. NOT MET

Q. Does the reported inhibition for `COc1ccc(C(=O)/C=C/c2ccc(NC(=O)c3ccc(I)cc3)cc2)cc1` fall at or above the 10% mark?
A. MET

Q. Does the reported inhibition for `O=C(Nc1ccccc1)ON=C1c2ccccc2-c2ccccc21` fall at or above the 10% mark?
A. MET

Q. Does the reported inhibition for `COc1ccc(C(=O)Nc2cccc(/C=C/C(=O)c3ccccc3)c2)cc1OC` fall at or above the 10% mark?
A. NOT MET

Q. Does the reported inhibition for `CCOc1ccc2ccccc2c1/C=C(\C#N)C(=O)NCc1ccco1` fall at or above the 10% mark?
A. MET

Q. Does the reported inhibition for CC1=C(C(=O)Nc2ccc(Br)cc2)C(c2ccccc2)NC(=O)N1 (configuration not stated) fall at or above the 10% mark?
A. MET

Q. Does the reported inhibition for `O=[N+]([O-])c1ccc(Cl)c(S(=O)(=O)Nc2ccccn2)c1` fall at or above the 10% mark?
A. NOT MET

Q. Does the reported inhibition for `Cc1cc2nc(-c3ccc(NC(=O)c4ccc(-c5ccccc5[N+](=O)[O-])o4)cc3)oc2cc1C` fall at or above the 10% mark?
A. MET

---

assayed_target: Gag-Pol polyprotein (Human immunodeficiency virus type 1 group M subtype B (isolate HXB2)) (UniProt P04585)
procedure_text: RNase H inhibition, HIV 1 Gag Pol polyprotein, FRET biochemical assay, screening (AID 372)
stated_conditions: HIV-1 RT RNase H, FRET RNA/DNA substrate fluorescence; at 10 µM
About 770 (0.77%) of roughly 100,000 compounds were called active. Rule as the data show it: active = inhibition above about 50%; inactive = the rest. The full list was thinned out, with actives kept by preference.
Choose one outcome from this list and give only that: active, inactive

compound: O=C1C=C/C(=N\S(=O)(=O)c2ccc(Cl)cc2)C=C1Cl
category: inactive

compound: Fc1ccccc1COc1cccc(/C=N/Nc2ccccc2)c1
category: inactive

Q. Please let me know the test result on file for `COc1ccc(OCC(=O)Nc2cccc(-c3nc4ccccc4s3)c2)cc1` .
A. inactive

Q. Please let me know the test result on file for `COc1ccc(/C=C\C(=O)Nc2ccc3oc(-c4cccnc4)nc3c2)cc1` .
A. inactive

Q. Please let me know the test result on file for `NS(=O)(=O)c1ccc(CCNC(=O)/C=C/c2cccc([N+](=O)[O-])c2)cc1` .
A. inactive

---

assayed_target: Gag-Pol polyprotein (Human immunodeficiency virus type 1 group M subtype B (isolate HXB2))
procedure_text: RNase H inhibition, HIV 1 Gag Pol polyprotein, FRET biochemical assay, screening (AID 372)
stated_conditions: HIV-1 RT RNase H, FRET RNA/DNA substrate fluorescence; at 10 µM; hits give high values
Among all 100,000 compounds or so, about 770 (0.77%) were called active. What follows is part of a selection rich in actives, with near analogues and random picks from the rest.
Mark not satisfied for inhibition values under 10%, and satisfied for everything at or above.

compound: Cn1cccc1/C=C1/C(=O)NC(=S)N(c2cccc(Cl)c2)C1=O
category: satisfied
--
compound: CC(=O)Nc1nc(-c2ccccc2)nc(C)c1C(C)=O
category: not satisfied
--
compound: Cc1ccc(S(=O)(=O)c2ccc(C)c(S(N)(=O)=O)c2)cc1S(N)(=O)=O
category: not satisfied
--
compound: COc1cccc2c1NC(c1ccc(F)cc1)C1CC=CC21 (stereo not given)
category: satisfied
--
compound: O=[N+]([O-])c1ccc(C2Nc3ccc(I)cc3C3C=CCC32)cc1 (stereo not given)
category: satisfied
--
compound: CCc1nnc(NC(=O)CCCOc2ccc(Cl)cc2Cl)s1
category: not satisfied

Q. Does the reported inhibition for `CCOc1ccccc1N(CC(=O)N/N=C(\C)c1cccc(Br)c1)S(C)(=O)=O` fall at or above the 10% mark?
A. satisfied

Q. Does the reported inhibition for `Cc1sc(NS(=O)(=O)c2ccc([N+](=O)[O-])cc2)nc1-c1ccc(Br)cc1` fall at or above the 10% mark?
A. satisfied

Q. Does the reported inhibition for O=C1/C(=C\c2ccc(-c3ccccc3[N+](=O)[O-])o2)SC(=S)N1C1CCS(=O)(=O)C1 (stereo not given) fall at or above the 10% mark?
A. satisfied

Q. Does the reported inhibition for `CCOc1ccc(N(CC(=O)Nc2cccc(C(C)=O)c2)S(C)(=O)=O)cc1` fall at or above the 10% mark?
A. satisfied
